All values here come from the supplement of paper PMC11061612.

tested on: NH-12 (Neuroblastoma); assay: combination Emax (second highest fraction inhibited in the dose matrix, 72 h); higher = more inhibition; extreme values may be limits of the assay
assay endpoint: combination Emax
Please state the value as a number alone, without comment.

Record request: combination Emax value, item CN(CCO)CC[C@H](CSc1ccccc1)Nc1ccc(S(=O)(=O)NC(=O)c2ccc(N3CCC([C@@H](O)c4ccccc4-c4ccc(Cl)cc4)CC3)cc2)cc1S(=O)(=O)C(F)(F)F [AZD4320] + C[C@@H]1COCCN1C2=NC(=NC(=C2)C3(CC3)[S@](=N)(=O)C)C4=C5C=CNC5=NC=C4 [AZD6738] (first compound max 1 µM, 7x7, partner max 10 µM)
1

Also NC1(C(=O)N[C@@H](CCO)c2ccc(Cl)cc2)CCN(c2ncnc3[nH]ccc23)CC1 [Capivasertib] + CC(=O)c1c(C)c2cnc(Nc3ccc(N4CCNCC4)cn3)nc2n(C2CCCC2)c1=O [Palbociclib] (first compound max 10 µM, 7x7, partner max 10 µM) , if possible.
0.519

Queued: CCN(CCO)CCCOc1ccc2c(Nc3cc(CC(=O)Nc4cccc(F)c4)[nH]n3)ncnc2c1 [AZD2811] + O=C(c1cc(Cc2n[nH]c(=O)c3ccccc23)ccc1F)N1CCN(C(=O)C2CC2)CC1 [Olaparib] (first compound max 1 µM, 7x7, partner max 10 µM)
0.659

What about Cc1cc2ncnn2cc1Nc1ncc2c(n1)n(C1CCOCC1)c(=O)n2C [AZD7648] + CN(C)CCCOc1ccc(-c2ccc3ncc4c(c3c2)n(C2CCOCC2)c(=O)n4C)cn1 [AZD0156] (first compound max 10 µM, 7x7, partner max 1 µM) ?
0.153
